Data credit: paper PMC6155662

Would you mind telling me the reported CC50 at 24 h of each entry?
# test: Cytotoxicity assay (Alamar Blue) on macrophages
# Assay type: cell-based, murine
# protocol conditions: mouse, J774A.1 macrophages, mean and SD of triplicate
Numbers only, in µM.

Below are worked cases with known answers.
input smiles	unit string	CC50 at 24 h
CC(C)OC(=O)c1ccc2c(c1)[n+]([O-])c(C(=O)c1ccco1)c(C(F)(F)F)[n+]2[O-]	µM	55.4
CC(C)OC(=O)c1ccc2c(c1)[n+]([O-])c(C(=O)c1cccs1)c(C(F)(F)F)[n+]2[O-]	µM	12.8
CC(=O)c1c(C(F)(F)F)[n+]([O-])c2ccc(C(=O)OC(C)C)cc2[n+]1[O-]	µM	17.5
CCOC(=O)Cc1c(C(=O)OCC)[n+]([O-])c2cc(C(=O)OC(C)C)ccc2[n+]1[O-]	µM	44.4
CCOC(=O)c1c(C(F)(F)F)[n+]([O-])c2ccc(C(=O)OC(C)C)cc2[n+]1[O-]	µM	14.5

Now for the compound whose CC50 at 24 h we want.
Find the recorded CC50 at 24 h belonging to `Cc1c(C(N)=O)[n+]([O-])c2cc(C(=O)OC(C)C)ccc2[n+]1[O-]` and report it. 221
